target: Nitric oxide synthase, inducible (Mus musculus, UniProt P29477); assay: Inhibition of recombinant mouse macrophage iNOS expressed in Escherichia coli
Sequence (P29477 whole entry): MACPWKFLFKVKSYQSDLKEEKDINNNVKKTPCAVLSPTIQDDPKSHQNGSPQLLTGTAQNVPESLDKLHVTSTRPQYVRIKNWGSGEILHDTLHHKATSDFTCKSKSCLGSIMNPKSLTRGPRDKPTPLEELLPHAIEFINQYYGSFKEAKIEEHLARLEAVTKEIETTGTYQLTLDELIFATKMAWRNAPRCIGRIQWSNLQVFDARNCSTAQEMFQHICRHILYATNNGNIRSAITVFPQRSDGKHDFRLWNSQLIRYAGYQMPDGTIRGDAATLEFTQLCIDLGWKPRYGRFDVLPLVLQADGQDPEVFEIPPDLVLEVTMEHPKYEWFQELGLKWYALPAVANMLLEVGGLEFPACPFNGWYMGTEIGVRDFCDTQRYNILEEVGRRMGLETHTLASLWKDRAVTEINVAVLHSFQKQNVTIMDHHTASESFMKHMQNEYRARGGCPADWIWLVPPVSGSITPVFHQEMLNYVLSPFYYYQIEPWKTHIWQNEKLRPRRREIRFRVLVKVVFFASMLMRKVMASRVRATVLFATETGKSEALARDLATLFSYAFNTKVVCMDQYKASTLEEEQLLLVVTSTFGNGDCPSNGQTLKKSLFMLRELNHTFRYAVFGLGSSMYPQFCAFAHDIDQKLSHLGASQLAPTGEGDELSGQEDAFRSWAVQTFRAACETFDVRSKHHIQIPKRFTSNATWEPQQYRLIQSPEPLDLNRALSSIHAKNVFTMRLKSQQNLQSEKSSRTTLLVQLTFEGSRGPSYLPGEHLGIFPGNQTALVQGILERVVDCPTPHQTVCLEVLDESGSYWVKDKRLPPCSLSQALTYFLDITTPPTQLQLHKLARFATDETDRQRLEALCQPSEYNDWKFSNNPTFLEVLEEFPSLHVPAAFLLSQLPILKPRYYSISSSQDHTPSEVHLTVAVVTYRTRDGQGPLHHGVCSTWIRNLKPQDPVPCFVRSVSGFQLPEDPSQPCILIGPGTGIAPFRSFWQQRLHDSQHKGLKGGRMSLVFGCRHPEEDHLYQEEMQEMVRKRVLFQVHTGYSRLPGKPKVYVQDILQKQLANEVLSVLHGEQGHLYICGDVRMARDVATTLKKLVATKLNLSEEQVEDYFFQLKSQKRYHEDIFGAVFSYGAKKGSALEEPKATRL
readout.kind: pIC50
Quick note: pIC50 means taking -log10 of the concentration in moles per liter.

Fill in reported pIC50 for this entry: `NCC[C@@H](O)C[C@@H](N)CCCN=C(N)N[N+](=O)[O-]`
3.78

Fill in reported pIC50 for this entry: `NCCC[C@H](O)C[C@@H](N)CCCN=C(N)N[N+](=O)[O-]`
3.44

Fill in reported pIC50 for this entry: `NC(=NCCC[C@H](N)C[C@@H](O)CCCO)N[N+](=O)[O-]`
3.28

Fill in reported pIC50 for this entry: `N=C(NCCC[C@H](N)C[C@H](O)CCCN)N[N+](=O)[O-]`
3.50

Fill in reported pIC50 for this entry: `N=C(NCCC[C@H](N)C[C@@H](O)CCN)N[N+](=O)[O-]`
3.59

Fill in reported pIC50 for this entry: `NC(=NCCC[C@H](N)C[C@H](O)CCO)N[N+](=O)[O-]`
2.89

Fill in reported pIC50 for this entry: `NC(=NCCC[C@H](N)C[C@@H](O)CCO)N[N+](=O)[O-]`
3.48

Fill in reported pIC50 for this entry: `N=C(NCCC[C@H](N)C[C@H](O)CCCO)N[N+](=O)[O-]`
3.58

* * *

biological target: UniProt:P29476; test: Inhibition of recombinant rat brain nNOS expressed in Escherichia coli
Sequence (P29476 whole entry): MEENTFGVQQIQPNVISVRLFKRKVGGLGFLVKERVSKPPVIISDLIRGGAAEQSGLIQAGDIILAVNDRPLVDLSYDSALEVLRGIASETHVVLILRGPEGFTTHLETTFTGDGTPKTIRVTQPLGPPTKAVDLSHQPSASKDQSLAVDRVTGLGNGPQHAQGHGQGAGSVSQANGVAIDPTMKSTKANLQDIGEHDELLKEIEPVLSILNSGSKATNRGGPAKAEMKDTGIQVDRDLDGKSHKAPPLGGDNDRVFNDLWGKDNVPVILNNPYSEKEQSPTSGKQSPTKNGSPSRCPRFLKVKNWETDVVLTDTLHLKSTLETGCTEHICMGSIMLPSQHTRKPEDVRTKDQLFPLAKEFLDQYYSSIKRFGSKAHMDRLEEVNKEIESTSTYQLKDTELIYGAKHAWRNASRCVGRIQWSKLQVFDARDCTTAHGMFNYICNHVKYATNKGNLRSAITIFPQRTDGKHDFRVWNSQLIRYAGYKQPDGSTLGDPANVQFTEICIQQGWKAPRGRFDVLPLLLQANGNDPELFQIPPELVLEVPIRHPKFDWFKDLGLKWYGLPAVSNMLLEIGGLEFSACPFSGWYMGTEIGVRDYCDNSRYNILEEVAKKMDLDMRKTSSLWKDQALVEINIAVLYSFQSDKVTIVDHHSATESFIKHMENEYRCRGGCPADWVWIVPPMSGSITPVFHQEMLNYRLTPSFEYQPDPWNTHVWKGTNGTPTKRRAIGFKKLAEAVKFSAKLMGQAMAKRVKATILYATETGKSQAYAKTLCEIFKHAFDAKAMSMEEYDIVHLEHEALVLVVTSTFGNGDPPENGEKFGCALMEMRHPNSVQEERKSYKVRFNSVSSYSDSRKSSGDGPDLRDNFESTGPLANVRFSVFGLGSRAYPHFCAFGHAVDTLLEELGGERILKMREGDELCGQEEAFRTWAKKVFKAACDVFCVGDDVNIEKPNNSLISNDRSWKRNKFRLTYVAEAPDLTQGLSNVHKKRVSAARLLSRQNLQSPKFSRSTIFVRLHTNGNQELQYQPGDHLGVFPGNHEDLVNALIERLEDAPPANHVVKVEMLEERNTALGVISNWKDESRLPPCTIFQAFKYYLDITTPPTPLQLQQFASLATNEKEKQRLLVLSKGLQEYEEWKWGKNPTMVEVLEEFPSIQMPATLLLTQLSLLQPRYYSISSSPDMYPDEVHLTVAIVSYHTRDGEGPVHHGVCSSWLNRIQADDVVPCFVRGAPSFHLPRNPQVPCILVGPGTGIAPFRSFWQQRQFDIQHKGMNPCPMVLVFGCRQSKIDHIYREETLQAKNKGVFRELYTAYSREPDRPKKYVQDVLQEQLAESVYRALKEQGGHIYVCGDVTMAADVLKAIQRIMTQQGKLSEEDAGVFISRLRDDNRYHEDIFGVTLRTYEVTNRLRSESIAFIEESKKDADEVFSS
# strict inequality: IC50 < 100 µM yields condition met, everything else yields condition not met

- compound: "NC(=NCCC[C@H](N)C[C@@H](O)CCO)N[N+](=O)[O-]"
  label: "condition not met"
- compound: "NC(=NCCC[C@H](N)C[C@H](O)CCO)N[N+](=O)[O-]"
  label: "condition not met"
- compound: "NC(=NCCC[C@H](N)C[C@@H](O)CCCO)N[N+](=O)[O-]"
  label: "condition not met"
- compound: "N=C(NCCC[C@H](N)C[C@H](O)CCCO)N[N+](=O)[O-]"
  label: "condition not met"
- compound: "NCC[C@@H](O)C[C@@H](N)CCCN=C(N)N[N+](=O)[O-]"
  label: "condition met"
- compound: "N=C(NCCC[C@H](N)C[C@H](O)CCCN)N[N+](=O)[O-]"
  label: "condition met"

Lab note: confirm whether the reported IC50 for this molecule is below 100 µM, equality not counting. molecule: `NCCC[C@H](O)C[C@@H](N)CCCN=C(N)N[N+](=O)[O-]`
condition met

Lab note: confirm whether the reported IC50 for this molecule is below 100 µM, equality not counting. molecule: `N=C(NCCC[C@H](N)C[C@@H](O)CCN)N[N+](=O)[O-]`
condition met

* * *

test: Selectivity for nNOS over eNOS
readout.kind: Ratio IC50
Keep it simple and answer with nothing but the number.

# count of solved cases: 5
- compound: "N=C(NCCC[C@H](N)C[C@@H](O)CCCN)N[N+](=O)[O-]"
  Ratio IC50: 59
- compound: "N=C(NCCC[C@H](N)C[C@H](O)CCCO)N[N+](=O)[O-]"
  Ratio IC50: 1.8
- compound: "N=C(NCCC[C@H](N)C[C@@H](O)CCO)N[N+](=O)[O-]"
  Ratio IC50: 10.2
- compound: "N=C(NCCC[C@H](N)C[C@H](O)CCCN)N[N+](=O)[O-]"
  Ratio IC50: 225
- compound: "N=C(NCCC[C@H](N)C[C@H](O)CCO)N[N+](=O)[O-]"
  Ratio IC50: 9.9

Fill in reported Ratio IC50 for this entry: `N=C(NCCC[C@H](N)C[C@@H](O)CCCO)N[N+](=O)[O-]`
10.1

Fill in reported Ratio IC50 for this entry: `N=C(NCCC[C@H](N)C[C@@H](O)CCN)N[N+](=O)[O-]`
475

Fill in reported Ratio IC50 for this entry: `N=C(NCCC[C@H](N)C[C@H](O)CCN)N[N+](=O)[O-]`
143

* * *

experiment: Selectivity for nNOS over iNOS
readout.kind: Ratio IC50
Keep it simple and answer with nothing but the number.

- compound: "N=C(NCCC[C@H](N)C[C@H](O)CCCO)N[N+](=O)[O-]"
  recorded.measurement: 0.54
- compound: "N=C(NCCC[C@H](N)C[C@H](O)CCO)N[N+](=O)[O-]"
  recorded.measurement: 7.7
- compound: "N=C(NCCC[C@H](N)C[C@H](O)CCCN)N[N+](=O)[O-]"
  recorded.measurement: 33
- compound: "N=C(NCCC[C@H](N)C[C@@H](O)CCN)N[N+](=O)[O-]"
  recorded.measurement: 107
- compound: "N=C(NCCC[C@H](N)C[C@@H](O)CCCO)N[N+](=O)[O-]"
  recorded.measurement: 2.1

Fill in reported Ratio IC50 for this entry: `N=C(NCCC[C@H](N)C[C@@H](O)CCCN)N[N+](=O)[O-]`
15

Fill in reported Ratio IC50 for this entry: `N=C(NCCC[C@H](N)C[C@H](O)CCN)N[N+](=O)[O-]`
18

Fill in reported Ratio IC50 for this entry: `N=C(NCCC[C@H](N)C[C@@H](O)CCO)N[N+](=O)[O-]`
3.1
